# MEASUREMENT TARGET: Steroid 17-alpha-hydroxylase/17,20 lyase (Rattus norvegicus, UniProt P11715)
# Sequence (P11715 whole entry): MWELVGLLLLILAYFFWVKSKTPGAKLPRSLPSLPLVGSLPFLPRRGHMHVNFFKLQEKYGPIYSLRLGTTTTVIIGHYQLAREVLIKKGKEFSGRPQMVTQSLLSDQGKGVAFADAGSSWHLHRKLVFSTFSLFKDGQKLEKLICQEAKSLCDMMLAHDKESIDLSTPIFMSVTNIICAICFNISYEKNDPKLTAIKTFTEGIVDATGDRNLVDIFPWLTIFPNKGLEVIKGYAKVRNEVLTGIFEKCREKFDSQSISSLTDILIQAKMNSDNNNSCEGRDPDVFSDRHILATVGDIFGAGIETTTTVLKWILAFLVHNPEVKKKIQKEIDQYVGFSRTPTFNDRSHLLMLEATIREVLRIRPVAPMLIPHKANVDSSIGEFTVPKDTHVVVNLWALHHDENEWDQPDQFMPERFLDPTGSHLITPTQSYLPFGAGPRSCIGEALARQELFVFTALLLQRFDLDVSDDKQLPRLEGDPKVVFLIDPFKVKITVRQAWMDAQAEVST
Reported IC50 values are given for each entry in this list.
Return type: number; implicit unit µM.

As a guide, the following entries are already answered.
O=C1/C(=C/c2ccncc2)CCc2ccccc21 = 37
O=C1/C(=C/c2cccnc2)CCc2ccccc21 = 48

From here, focus on the item given below.
Query :: Lab note: need IC50 with Steroid 17-alpha-hydroxylase/17,20 lyase (Rattus norvegicus, UniProt P11715) for entry c1ccc2c(c1)CCC1C(c3ccncc3)C21 (configuration not stated) , please look it up.
Result :: 36

Ref: ChEMBL document CHEMBL1129578
